method: Cytotoxicity against human 786-O cells by MTT assay
Format: functional, cell-based
condition-parameters: 786-0
measure: pIC50
Just the number, please; pIC50 means minus log10 of the concentration in mol/L.

1) CCCCOc1ccc2c3ccnc(/C=C/c4ccc(OC)cc4)c3n(CCCc3ccccc3)c2c1 4.05

// moving on: another record for pIC50
The reported pIC50 of the compound CCCCn1c2ccccc2c2ccnc(/C=C/c3ccc(OC)cc3)c21 was 4.17

---

method: Cytotoxicity against human 786-O cells by MTT assay
Type: functional, cell-based
condition-parameters: 786-0
pIC50: −log10 of the molar value.
Binary call on pIC50: 1 from 5 upward, 0 beneath that.

Examples from the recorded data:
1) COc1ccc(/C=C/c2nccc3c4ccccc4n(CCCc4ccccc4)c23)cc1 0
2) CC(=O)n1c2ccccc2c2ccnc(/C=C/c3ccc([N+](=O)[O-])cc3)c21 0
3) CCCCOc1ccc2c3cc[n+](Cc4ccccc4)c(/C=C/c4ccc([N+](=O)[O-])cc4)c3n(CCCc3ccccc3)c2c1 1
4) CC(=O)n1c2ccccc2c2cc[n+](Cc3ccccc3)c(/C=C/c3ccc([N+](=O)[O-])cc3)c21 0
5) COc1ccc(/C=C/c2c3c(cc[n+]2Cc2ccccc2)c2ccccc2n3CCCc2ccccc2)cc1 1

# input Quick check: does CCCCOc1ccc2c3cc[n+](Cc4ccccc4)c(/C=C/c4ccc(OC)cc4)c3n(CCCc3ccccc3)c2c1 have pIC50 greater than or equal to 5?
# output 1

# input Quick check: does CCCCOc1ccc2c3ccnc(/C=C/c4ccc([N+](=O)[O-])cc4)c3n(CCCc3ccccc3)c2c1 have pIC50 greater than or equal to 5?
# output 0

# input Quick check: does O=[N+]([O-])c1ccc(/C=C/c2nccc3c4ccccc4n(CCCc4ccccc4)c23)cc1 have pIC50 greater than or equal to 5?
# output 0

# input Quick check: does COc1cc(/C=C/c2nccc3c2[nH]c2ccccc23)cc(OC)c1OC have pIC50 greater than or equal to 5?
# output 0

# input Quick check: does C(=C\c1nccc2c1[nH]c1ccccc12)/c1ccccc1 have pIC50 greater than or equal to 5?
# output 0

---

# maps each entry to its IC50
method: Cytotoxicity against human 786-O cells by MTT assay
Format: functional, cell-based
condition-parameters: 786-0
Write the number in µM without appending the unit.

Field: example entries. Status: answers known.
1) CCCCn1c2ccccc2c2cc[n+](Cc3ccccc3)c(/C=C/c3ccc(OC)cc3)c21 11.2
2) COc1ccc(/C=C/c2c3[nH]c4ccccc4c3cc[n+]2Cc2ccccc2)cc1 10

// moving on: another record for IC50
The reported IC50 of the compound COc1ccc(/C=C/c2nccc3c2[nH]c2ccccc23)cc1 was 12.9

Recorded values, source ChEMBL document CHEMBL1152167.
